Answer each item with its documented pIC50.
Experimental system: Taq DNA polymerase (Thermus aquaticus, UniProt P19821 P19821:1-832)
Sequence (P19821 whole entry, one chain of several): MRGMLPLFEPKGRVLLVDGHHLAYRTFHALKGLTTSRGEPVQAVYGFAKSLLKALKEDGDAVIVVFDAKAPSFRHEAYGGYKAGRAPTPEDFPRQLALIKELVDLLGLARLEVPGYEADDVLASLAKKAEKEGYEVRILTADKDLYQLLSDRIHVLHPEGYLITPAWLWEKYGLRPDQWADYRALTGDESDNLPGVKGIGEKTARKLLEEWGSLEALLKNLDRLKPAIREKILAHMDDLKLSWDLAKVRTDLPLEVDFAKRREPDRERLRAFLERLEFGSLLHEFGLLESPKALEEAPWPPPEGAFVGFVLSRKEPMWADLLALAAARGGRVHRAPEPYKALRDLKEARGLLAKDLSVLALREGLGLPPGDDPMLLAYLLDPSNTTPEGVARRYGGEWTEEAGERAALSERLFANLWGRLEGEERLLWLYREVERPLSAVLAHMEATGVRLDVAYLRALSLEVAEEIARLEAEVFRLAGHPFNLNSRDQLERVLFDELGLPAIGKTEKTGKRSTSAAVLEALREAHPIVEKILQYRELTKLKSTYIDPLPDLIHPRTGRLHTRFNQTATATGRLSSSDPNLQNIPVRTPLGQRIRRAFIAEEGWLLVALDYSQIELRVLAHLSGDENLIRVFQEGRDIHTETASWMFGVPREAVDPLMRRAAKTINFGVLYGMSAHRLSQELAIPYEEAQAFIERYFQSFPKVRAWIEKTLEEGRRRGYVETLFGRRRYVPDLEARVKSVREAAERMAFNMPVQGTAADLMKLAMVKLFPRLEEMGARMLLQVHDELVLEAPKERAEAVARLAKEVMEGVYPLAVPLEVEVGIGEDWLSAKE
Experimental details: inhibition; 45C
Assay setup: tags: rTaq, 94 kDa, Roche Molecular Systems; label: end-labeled
Numbers only, as −log10 of the molar value.

Binder | Assay readout | Reported
ligand 28 (TQH28) (ssDNA) DNA: TTCTCGGTTGGTCTCTGGCGGAGCAGGAGCAAGAATCATTCTTAGCGTTTTGATTCTTGTGTATGATTCGCTTTTCCC | pIC50 | 7.43

We next turn to a different binder, shown below.
Look up pIC50 of ligand 6 (TQH6) (ssDNA) DNA: TTCTCGGTTGGTCTCTGGCGGAGCGAATCATACGAAGACATTCCAACGTTTTGTCTTGTGTATGATTCGCTTTTCCC and report it.
7.52
